For each entry below, report its EC50 value.
- TARGET_OF_ASSAY: T1, full-length Sudan GP (GPFL) (Sudan virus (SUDV), UniProt Q7T9D9 33-650)
- T1 construct: also called Sudan GPFL; GP(S)FL
- T1 sequence: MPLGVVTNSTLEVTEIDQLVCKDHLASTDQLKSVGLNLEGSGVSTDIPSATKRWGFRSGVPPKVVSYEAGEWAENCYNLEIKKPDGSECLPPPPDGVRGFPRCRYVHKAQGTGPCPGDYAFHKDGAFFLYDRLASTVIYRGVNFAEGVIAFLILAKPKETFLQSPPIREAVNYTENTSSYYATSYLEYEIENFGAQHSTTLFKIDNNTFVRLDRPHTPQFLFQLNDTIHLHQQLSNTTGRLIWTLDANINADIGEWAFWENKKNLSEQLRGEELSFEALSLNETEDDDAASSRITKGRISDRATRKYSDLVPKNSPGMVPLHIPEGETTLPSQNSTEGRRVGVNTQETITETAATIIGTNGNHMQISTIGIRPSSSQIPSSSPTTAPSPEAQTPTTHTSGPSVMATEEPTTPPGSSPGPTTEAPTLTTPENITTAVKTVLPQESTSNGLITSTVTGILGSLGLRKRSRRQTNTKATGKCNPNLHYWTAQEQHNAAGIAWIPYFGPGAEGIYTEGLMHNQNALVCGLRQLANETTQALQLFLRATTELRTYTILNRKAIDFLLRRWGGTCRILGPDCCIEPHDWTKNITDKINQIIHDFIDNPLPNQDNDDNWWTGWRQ
- ASSAY_NAME: ELISA on coated GP
Numbers only, in µg/mL.

Incoming: Need EC50, item antibody 315S (antibody, V domains shown) VH: EVQLVESGGGVVQPGRSLRLSCAASGFTFKTYTMHWVRQAPGKGLEWVAVITDDGVNKKYADSVKGRFTISRDNSKNTLYLQMNSLRLEDTAVYYCARSVVVLAAYPLDYWGQGTMVTVSS VL: DIQMTQSPSSLSASVGDRVTITCRASQTISTYLHWYQQRPGKAPKLLIYAASSLQSGVPSRVSGSGSGTDFTLTITSLQPEDFATYYCLQTYSLPLTFGGGTNVEIK
Outgoing: 0.01

Below is a list of binders. For each, state its recorded EC50.
1. antibody 377S (antibody, V domains shown) VH: QVQLVQSGAEVKKPGSSVKVSCKASGGTFSNYAINWVRQAPGQGLEWMGRTIPFLGLTNYAENFQARVTITADKSTGTSYMQLSSLRSEDTAVYFCAKAATSGWSPFDNWGQGTLVTVSS VL: EIVLTQSPGTLSLSPGERATLSCRASQSISSSYFGWYQQKPGQAPRLLIYGASRRAAGIPDRFSCSGSGTDFTLTISRLEPEDFGVYYCQQYGSSPTFGQGTKVEIK
2. antibody 405S (antibody, V domains shown) VH: EVQLVESGGGLIQPGGSLRLSCAASGFTVSSHYMSWVRQAPGKGLEWVSGIYSGGRTHYADSVKGRFTISRDNSKNTLYLQMNSLRADDTAVYSCARGTLLYLYGMDVWGQGTTVTVSS VL: QSVLTQPPSVSAAPGQRVTISCTGSSSNIGAGYNVHWYQQLPGAAPKLLIYGNTNRPSGVPDRFSGSKSGTSASLAITGLQAEDEADYYCQSFDSSLSGVFGTGTKVTVL

Outgoing:
1. 0.14
2. 0.06

Sourced from patent US20260209316A1
